These measurements were taken from the RNAGym collection of RNA variant scans (doi:10.1073/pnas.2313332121).

B1: TPR 5TU (parent)
chain: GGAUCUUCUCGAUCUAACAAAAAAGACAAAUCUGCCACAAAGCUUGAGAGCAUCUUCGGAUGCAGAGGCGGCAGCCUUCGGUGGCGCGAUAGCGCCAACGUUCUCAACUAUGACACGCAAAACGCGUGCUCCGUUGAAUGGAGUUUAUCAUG

- Variants of: B1
- test protocol: polymerase ribozyme fitness, log enrichment relative to wild type (log ratio); higher = more active; in vitro selection for triplet polymerase activity
This sample holds only a part of the variants without activity.
measurement name: polymerase ribozyme fitness (log ratio)

>  <residue change>
A20U C38U C75A C87G A107U C132U

>  <measured>
≤ -4.2

$$$$
>  <residue change>
G46A G50C U56A G83U A147C

>  <measured>
≤ -4.2

$$$$
>  <residue change>
A21U A49G U55A G84A U104C A137U G140C A150C

>  <measured>
≤ -4.2

$$$$
